- Test system: NCI-H295R
- Test Protocol: area under concentration-response curve (viability) (AUC (a.u.)); higher = less active
- Settings: 48 h
The entries below come with measured area under concentration-response curve values attached.
Measured Metric: area under concentration-response curve

INSERT INTO results (molecular_string, target_under_test, measured_metric, assay_result) VALUES
  ('OC(=O)CNC(=O)\C1=C(/O)C2=CC=CC=C2N(CC3=CC=CC=C3)C1=O', 'NCI-H295R', 'area under concentration-response curve', 529),
  ('N#Cc1c(N(CC(=O)[O-])CC(=O)[O-])sc(C(=O)[O-])c1CC(=O)[O-]', 'NCI-H295R', 'area under concentration-response curve', 497),
  ('C[C@@H](NC(=O)c1ncnc(N)c1Cl)c1ncc(C(=O)Nc2cc(C(F)(F)F)c(Cl)cn2)s1', 'NCI-H295R', 'area under concentration-response curve', 318),
  ('O=c1cc(O)c(Cl)c[nH]1', 'NCI-H295R', 'area under concentration-response curve', 586),
  ('CN(C)C(=O)C(CCN1CCC(O)(c2ccc(Cl)cc2)CC1)(c1ccccc1)c1ccccc1', 'NCI-H295R', 'area under concentration-response curve', 549);

---

- Tested on: NCI-H295R
- Test Protocol: area under concentration-response curve (viability) (AUC (a.u.)); higher = less active
- Settings: 48 h
The entries below come with measured area under concentration-response curve values attached.
Measured Metric: area under concentration-response curve

INSERT INTO results (molecular_string, assay_result) VALUES
  ('CN1\C=N/C2=CC=C(NC3=CC(=CC=C3C)NC(=O)C4=CC(=CC=C4)C(C)(C)C#N)C=C2C1=O', 518),
  ('Clc1ccccc1CN1CCc2sccc2C1', 543),
  ('NNc1nncc2ccccc12', 534),
  ('COc1cc([C@@H]2c3cc4c(cc3[C@@H](O[C@@H]3O[C@@H]5CO[C@@H](c6cccs6)O[C@H]5[C@H](O)[C@H]3O)[C@H]3COC(=O)[C@H]23)OCO4)cc(OC)c1O', 532);

---

- Tested on: CU-ACC2
- Test Protocol: area under concentration-response curve (viability) (AUC (a.u.)); higher = less active
- Settings: 48 h
Measured Metric: area under concentration-response curve

INSERT INTO measurements (compound, measured_metric, assay_result) VALUES
  ('C=CC(=O)N1C[C@H](Nc2ncnc3[nH]ccc23)CC[C@@H]1C', 'area under concentration-response curve', 622),
  ('CCCCCCCCCCCCCCCCCCCCCCO', 'area under concentration-response curve', 562),
  ('CCC[C@H](NC(=O)/C(C#N)=C/c1cccc(Br)n1)c1ccccc1', 'area under concentration-response curve', 565),
  ('CN(C(=O)c1ccc(F)cc1C(F)(F)F)C1CCN(c2nnc(-c3ccnn3C)c3ccccc23)CC1', 'area under concentration-response curve', 601),
  ('CC1(C)SCCN([S+](=O)([O-])c2ccc(OCC#CCO)cc2)[C@H]1C(=O)NO', 'area under concentration-response curve', 437),
  ('Cn1cc(-c2c[nH]c3ncnc(N4CCOCC4)c23)cn1', 'area under concentration-response curve', 610),
  ('NC[C@H]1CC[C@H](C(=O)O)CC1', 'area under concentration-response curve', 586),
  ('Fc1cc(-c2cccc3ncc(-c4cnn(C5CCNCC5)c4)nc23)cc(F)c1CN1CCOCC1', 'area under concentration-response curve', 437),
  ('CC(C)c1ccc2oc3nc(N)c(C(=O)O)cc3c(=O)c2c1', 'area under concentration-response curve', 606),
  ('O=C(Nc1ccccc1)Nc1ccc(-c2ccc(C(=O)[C@@H]3CCC[C@H]3C(=O)O)cc2)cc1', 'area under concentration-response curve', 472),
  ('NC/1=N/C2=C([NH]C=N2)C(=S)N1', 'area under concentration-response curve', 609),
  ('Cc1cc(OCCC[S+](C)(=O)[O-])cc(C)c1-c1cccc(COc2ccc3c(c2)OC[C@H]3CC(=O)O)c1', 'area under concentration-response curve', 528),
  ('CC(C)(C)c1cc(C=C(C#N)C#N)cc(Br)c1O', 'area under concentration-response curve', 583),
  ('CNc1nccc(-c2cccnc2Oc2cc(C(=O)Nc3cccc(C(F)(F)F)c3)ccc2C)n1', 'area under concentration-response curve', 494),
  ('Cc1nc2ccc(-n3ncc(C(=O)c4cc5ccccc5[nH]4)c3N)cc2[nH]1', 'area under concentration-response curve', 595),
  ('CC1=C(C=CC=C1)N2/N=C(\C=C/C2=O)C3=C4NC[C@@H](CO)C[N]4N=C3C5=CC=C(F)C=C5', 'area under concentration-response curve', 422),
  ('Clc1ccc(C(Cn2ccnc2)OCc2ccc(Sc3ccccc3)cc2)c(Cl)c1 (centres undefined)', 'area under concentration-response curve', 528),
  ('COCCOc1ccc(N2CCN(CCn3ncc4c3nc(N)n3nc(-c5ccco5)nc43)CC2)cc1', 'area under concentration-response curve', 606),
  ('CC(C)(C)C#Cc1cc(N(C(=O)[C@H]2CC[C@H](C)CC2)[C@H]2CC[C@@H](O)CC2)c(C(=O)O)s1', 'area under concentration-response curve', 478);

---

- System: CU-ACC1
- Test Protocol: ExcessHSA synergy score with TAK-243; higher = less synergy (negative = synergistic)
- Settings: combined with: TAK-243 (MLN-7243) matrix, 9-point 1:2 dilution
The entries below come with measured ExcessHSA synergy score with TAK-243 values attached.
Measured Metric: ExcessHSA synergy score with TAK-243

INSERT INTO measurements (compound, measured_metric, assay_result) VALUES
  ('CNC(=O)Nc1ccc2c(c1)CC[C@@]21OC(=O)N(CC(=O)N(Cc2ccc(F)cc2)[C@@H](C)C(F)(F)F)C1=O', 'ExcessHSA synergy score with TAK-243', 305),
  ('Cc1cc(Oc2ccc3nc(COc4ccc(CC5SC(=O)NC5=O)cc4)n(C)c3c2)cc(C)c1N (stereo not given)', 'ExcessHSA synergy score with TAK-243', -278),
  ('O=C(CCCCCCNC(=O)c1cnc(N(c2ccccc2)c2ccccc2Cl)nc1)NO', 'ExcessHSA synergy score with TAK-243', -47.7),
  ('CC(=O)N1CCC(Nc2cc(C(=O)NC[C@H](O)CN3CCc4ccccc4C3)ncn2)CC1', 'ExcessHSA synergy score with TAK-243', 517),
  ('CN(Cc1cnc2nc(N)nc(N)c2n1)c1ccc(C(=O)N[C@@H](CCC(=O)O)C(=O)O)cc1 [Methotrexate]', 'ExcessHSA synergy score with TAK-243', 544),
  ('NC(=O)/C(=C/n1cnc(-c2cc(C(F)(F)F)cc(C(F)(F)F)c2)n1)c1cncnc1 [Eltanexor]', 'ExcessHSA synergy score with TAK-243', -817),
  ('CC1=C(/C=C/C(C)=C/C=C/C(C)=C\C(=O)O)C(C)(C)CCC1', 'ExcessHSA synergy score with TAK-243', 563),
  ('COc1c(OCCCN2CCOCC2)ccc2c3n(c(=NC(=O)c4cnc(N)nc4)nc12)CCN3', 'ExcessHSA synergy score with TAK-243', 70.4),
  ('CC1(C)CCC2(CC1)N[C@@H](C(=O)N[C@@H]1CC[C@@H](C(N)=O)OC1)[C@H](c1ccnc(Cl)c1F)[C@]21C(=O)Nc2cc(Cl)ccc21', 'ExcessHSA synergy score with TAK-243', -380),
  ('CN(C)C/C=C/C(=O)Nc1ccc(C(=O)Nc2cccc(Nc3ncc(Cl)c(-c4c[nH]c5ccccc45)n3)c2)cc1', 'ExcessHSA synergy score with TAK-243', -55.8),
  ('Nc1cccc2c1CN(C1CCC(=O)NC1=O)C2=O (stereo not given) [Lenalidomide]', 'ExcessHSA synergy score with TAK-243', 337),
  ('Cc1[nH]c2ccc(F)cc2c1-c1nc2c3cccnc3c3ncccc3c2[nH]1', 'ExcessHSA synergy score with TAK-243', 410),
  ('C=CCNc1nc(N)c(C(=O)c2ccc(F)s2)s1', 'ExcessHSA synergy score with TAK-243', 584),
  ('CC1(C)CC[C@]2(NC(=O)C(C)(F)F)CC[C@]3(C)[C@H](C(=O)C=C4[C@@]5(C)C=C(C#N)C(=O)C(C)(C)[C@@H]5CC[C@]43C)[C@@H]2C1 [Omaveloxolone (RTA-408)]', 'ExcessHSA synergy score with TAK-243', 367),
  ('C[C@@H]1CN(Cc2ccc(F)cc2)[C@@H](C)CN1C(=O)c1cc2c(C(=O)C(=O)N(C)C)cn(C)c2cc1Cl', 'ExcessHSA synergy score with TAK-243', 218);

---

- Test system: CU-ACC1
- Test Protocol: area under concentration-response curve (viability) (AUC (a.u.)); higher = less active
- Settings: 48 h
Decide by area under concentration-response curve: equal to or exceeding 400 means criterion met, less means criterion not met.

INSERT INTO measurements (compound, class) VALUES
  ('CO[C@@H]1[C@@H](OC(N)=O)[C@@H](O)[C@H](OC2=CC=C3\C(=C(NC(=O)C4=CC=C([O-])C(=C4)CC=C(C)C)/C(=O)OC3=C2C)O)OC1(C)C', 'criterion met'),
  ('COC(=O)C1=C(C)NC(C)=C(C(=O)OCCN2CCN(C(c3ccccc3)c3ccccc3)CC2)C1c1cccc([N+](=O)[O-])c1.Cl.Cl (stereo not drawn)', 'criterion met'),
  ('COC1=CC=C2[N](CCCN(C)C)C=C(C2=C1)C/3=C(/C(=O)NC3=O)C4=C[NH]C5=C4C=CC=C5', 'criterion met'),
  ('O=C(c1ccc(Nc2nccc(-c3cc4ccccc4s3)n2)cc1)N1CCC(N2CCCC2)CC1', 'criterion met'),
  ('CN(C)c1ccc(C(=O)NCCCCCCC(=O)NO)cc1', 'criterion not met'),
  ('CC(C)c1ccc2c(c1)c(SC(C)(C)C)c(CC(C)(C)C(=O)[O-])n2Cc1ccc(Cl)cc1', 'criterion met');

Each recorded value in this set is attributed to the supplement of paper PMC10949913.
